Experiment: NCI Yeast Anticancer Drug Screen. Data for the rad50 strain (AID 155);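 further: 0% = growth of vehicle-only cultures of the same strain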
Conditions: S. cerevisiae rad50 strain growth inhibition; at 50.0 µM; active compounds read high
The panel holds about 79,000 compounds, 15% with a hit somewhere; the sample as a whole holds those more often.
test-readout: growth inhibition (%)
Numbers only, in %.

Consider the reported growth inhibition for these molecules:
{"molecule": "CCCCN=C1NC(N)=NC(C)(C)N1", "test-readout": "growth inhibition", "unit-descriptor": "%", "result-number": -0.1}
{"molecule": "CC(C)C1OC(c2ccccc2)OCC1(C)C (stereo not given)", "test-readout": "growth inhibition", "unit-descriptor": "%", "result-number": -14.8}

Need growth inhibition for each of these molecules.
1. CNNCCCC(=O)NC(C)C
2. O=[N+]([O-])c1ccc(-c2nnc(C34CC5CC(CC(C5)C3)C4)o2)cc1
3. Cn1c(=O)c2conc2n(-c2ccc(Cl)cc2)c1=O

Reply:
1. -5.7
2. -26.7
3. 11.2

====

Experiment: NCI Yeast Anticancer Drug Screen. Data for the mlh1 rad18 strain (AID 175)
Conditions: S. cerevisiae mlh1 rad18 strain growth inhibition; at 50.0 µM; active compounds read high
Compounds without any hit were thinned out: in the full panel of roughly 79,000, 15% have a hit.
Could you please report measured growth inhibition for the items listed next?
Give bare numbers, in %.

Consider the reported growth inhibition for these compounds:
{"compound": "CC1(C)CC(Nc2ccccc2)=CC(=Nc2ccccc2)S1", "unit-descriptor": "%", "growth inhibition": -14.2}
{"compound": "NC(CC1C=CC=CC1)C(=O)O (stereo not drawn)", "unit-descriptor": "%", "growth inhibition": -4.85}
{"compound": "Cc1ccc(C(=O)c2ccccc2C(=O)O)cc1C", "unit-descriptor": "%", "growth inhibition": -18.6}
{"compound": "CCOC(=O)C(C)OC(=O)C(C)OC(C)=O (stereo not drawn)", "unit-descriptor": "%", "growth inhibition": -7.7}
{"compound": "Nc1ccc(COCCOCc2ccc(N)cc2)cc1", "unit-descriptor": "%", "growth inhibition": 17.4}

Need growth inhibition for each of these compounds.
1. CCCC(=O)Nc1ccc2c(ccn2COC)c1
2. Cc1cc(S(=O)(=O)Nc2nnc3c4ccccc4cnn23)c(S)cc1Cl
3. CC(=O)NC(CCCNC(=O)OCc1ccccc1)C(=O)NCc1ccccc1 (stereo not drawn)

Reply:
1: -18.2; 2: -31.6; 3: -36

====

Test: NCI Yeast Anticancer Drug Screen. Data for the bub3 strain (AID 167)
Conditions: S. cerevisiae bub3 mutant strain, at 50.0 µM, active compounds read high
The panel holds about 79,000 compounds, 15% with a hit somewhere; the sample as a whole holds those more often. Where a SMILES comes first, the peptide text is derived from it. The star is where a group is joined. Cbz = O=C(OCc1ccccc1)*
test-readout: growth inhibition (%)
Give bare numbers, in %.

Consider the reported growth inhibition for these compounds:
{"compound": "COC(=O)C(NC(=O)C(C)NC(=O)C1CCCN1C(=O)CNC(=O)C(CO)NC(=O)C(NC(=O)OCc1ccccc1)C(C)O)C(C)O (stereo unspecified) (Cbz-TSGPAT-OMe; configuration not given here)", "test-readout": "growth inhibition", "result-number": -7.8}
{"compound": "O=C(O)CCC(=O)Nc1ccccc1C(=O)O", "test-readout": "growth inhibition", "result-number": 5.6}
{"compound": "Nc1ccc(S(=O)(=O)O)cc1", "test-readout": "growth inhibition", "result-number": -6.75}
{"compound": "CCOC(=O)c1ccc(NP(=O)(Nc2ccc(C(=O)OCC)cc2)c2ccc(N)cc2)cc1", "test-readout": "growth inhibition", "result-number": 0.85}
{"compound": "Cn1c(=O)c2[nH]c(C(=O)O)nc2n(C)c1=O", "test-readout": "growth inhibition", "result-number": -8.3}

Need growth inhibition for each of these compounds.
1. O=CCCC1CCCCC1
2. CC(C)=CC(=O)C/C(=N\NC(N)=S)C(=O)Nc1ccc(Cl)cc1
3. CC1=CC(=O)CC(C(C)C)C1 (stereo unspecified)
4. CC(C)c1ccccc1OC(=O)c1cccc(Br)c1

Reply:
1: 13.1; 2: 5.1; 3: 1.95; 4: 13.9

Need growth inhibition for each of these compounds.
1. Cc1c(CO)[n+](=O)c2ccccc2n1[O-]
2. CC(=O)Nc1cccc2[nH]c(=O)c3ccccc3c12
3. COc1ccc(COCc2ccc(OC)cc2)cc1
4. CN(C)c1ccc(C=C2/C(=N\O)c3ccccc3/C2=N/O)cc1
5. C#CC1(O)CCCCCCCCC2(CCCCCCCC1)OCCO2
6. Nc1cc2cn[nH]c2cc1N
7. CCCCCCCCCCCCCCCCCC(=O)N/N=C/c1ccc(O)cc1

Reply:
[3.4, -16.9, 13.8, 34.2, -5.85, 9.3, -6.2]

Need growth inhibition for each of these compounds.
1. COC(OC)c1cccc2c1C(=O)CCC1(CC2)OCCCCO1
2. CCOC(=O)C(CC(C)C)NC(=O)c1cnc2ccccc2c1 (stereo unspecified)

Reply:
1. -39.9
2. 26.2

====

Assay: NCI Yeast Anticancer Drug Screen. Data for the mlh1 rad18 strain (AID 175)
Conditions: S. cerevisiae mlh1 rad18 strain growth inhibition; at 50.0 µM; active compounds read high
This is part of a sample that, as a whole, favours compounds with a hit. Of some 79,000 tested, about 15% had one in any assay.
Could you please report measured growth inhibition for the items listed next?
Answers are plain numbers, in %.

{"compound": "C/C(=N\\NC(=S)Nc1cccc2cccc(S(=O)(=O)O)c12)c1ccccn1", "growth inhibition / %": 2.85}
{"compound": "C=CCO[Si](C=C)(OCC=C)OCC=C", "growth inhibition / %": -3.95}

Shifting focus to the compound that follows.
Query: Field request: growth inhibition | item: COC(=O)CC1C2C=CN(C(=O)OC)N(C(=O)OC)C21 (stereo not drawn)
Reply: 3.9

====

Assay: NCI Yeast Anticancer Drug Screen. Data for the mlh1 rad18 strain (AID 175)
Settings: S. cerevisiae mlh1 rad18 strain growth inhibition; at 50.0 µM
The panel holds about 79,000 compounds, 15% with a hit somewhere; the sample as a whole holds those more often. Activity calls are given as the source filed them. Rule as the data show it: active = growth inhibition above about 70%; inactive = the rest.
Your answer must be one of the following: YES (active), NO (inactive)

{"compound": "CCCCN(C)CCNc1cc(C)nc(Nc2nc3ccc(Cl)cc3[nH]2)n1", "category": "YES"}
{"compound": "CCCCCNC(=O)C(C)O (stereo not given)", "category": "NO"}
{"compound": "Cc1cnc(-c2ccccc2)o1", "category": "NO"}
{"compound": "C/C(=C1\\SC(=S)N(C2OC(CO)C(O)C(O)C2O)C1=O)c1ccco1 (stereo not given)", "category": "NO"}
{"compound": "CCCCCOC(=O)c1cccnc1", "category": "NO"}
{"compound": "CN1C(=O)NC(=O)C1(C)C=O (stereo not given)", "category": "NO"}
{"compound": "CN(C)Cc1c[nH]c2nc[nH]c(=O)c12", "category": "NO"}
{"compound": "N#C/C(=C/c1cccc2ccccc12)C(N)=O", "category": "NO"}

Query: Recorded call for CCCCCCC(C)OC(C)=O (stereo not given) ?
Reply: NO

Query: Recorded call for CCC1C(=O)OCc2c1cc1n(c2=O)C(CC)c2c-1nc1ccccc1c2Cl (stereo not given) ?
Reply: NO

Query: Recorded call for COc1cc(/C=C\c2ccc(SC)cc2)cc(OC)c1OC ?
Reply: NO

Query: Recorded call for CSc1cc2c(cc1[N+](=O)[O-])C(=O)c1cc(F)ccc1-2 ?
Reply: NO

Query: Recorded call for CC(C)(Cl)C1CCC(CC(Cl)(Cl)Cl)CC1 (stereo not given) ?
Reply: NO

Query: Recorded call for CCCCCC#CC(=O)OCC ?
Reply: NO

Query: Recorded call for COC(=O)C(CNc1ccc(S(N)(=O)=O)cc1)=[N+]=[N-] ?
Reply: NO

====

Experiment: NCI Yeast Anticancer Drug Screen. Data for the rad50 strain (AID 155);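 further: 0% = growth of vehicle-only cultures of the same strain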
Conditions: S. cerevisiae rad50 strain growth inhibition; at 50.0 µM; active compounds read high
This is part of a sample that, as a whole, favours compounds with a hit. Of some 79,000 tested, about 15% had one in any assay. *1 amine or outer side, *2 acyl side, *3 side chain or, on linkers, in order; H or OH if unused. Where a SMILES comes first, the peptide text is derived from it. [ ]: non-standard residue; d: D form. X12 = NC(N)=NCC(O)CC(N[*:1])C(=O)[*:2]; Orn = NCCC[CH](N)C(=O)O
Could you please report measured growth inhibition for the items listed next?
Numbers only, in %.

{"compound": "CCO/C(=C/[S+](C)C)c1ccccc1", "growth inhibition, %": 0.55}

Need growth inhibition for each of these compounds.
1. NC(=O)C(=O)c1cc(Cl)c(Cl)c(Cl)c1Cl
2. O=C(Nc1ccccn1)c1ccccc1
3. CCCc1c(C(=O)O)c(-c2cccc3ccccc23)c(CCC)c2c1-c1cccc3cccc-2c13
4. NC(=O)C(N)CC(=O)O (configuration not stated)

Reply:
1. -12.3
2. 35
3. 54.5
4. 6.15

Need growth inhibition for each of these compounds.
1. CC(O)C(NC(=O)C(CCCN)NC(=O)C(CC(O)CN=C(N)N)NC(=O)C(N)CCCN=C(N)N)C(=O)NC(CCCN)C(=O)NC(CC(O)CN=C(N)N)C(=O)NC(Cc1ccc(O)cc1)C(=O)O (configuration not stated) (H-R[X12][Orn]T[Orn][X12]Y-OH; configuration not given here)
2. CC(C)(C)C1=Cc2cc3cc(C(C)(C)C)[nH]c(=O)c3cc2S(=O)(=O)N1
3. COc1ccc(C(O)(c2ccc(OC)cc2)c2ccccc2Cc2ccccc2OC)cc1

Reply:
-0.15
-23.2
-61.6

Need growth inhibition for each of these compounds.
1. COc1ccc(N=Cc2ccc(N(CCC#N)S(=O)(=O)c3ccccc3)cc2C)cc1
2. COc1ccc(/C=C/C(=O)OCCC(C)C)cc1
3. CCOC(=O)c1c(C(=O)OCC)c(C)n(/N=N/n2c(C)c(C(=O)OCC)c(C(=O)OCC)c2C)c1C

Reply:
[-9.4, 3.7, 29.3]

Need growth inhibition for each of these compounds.
1. O=C1C=C(Nc2cccnc2)c2ccccc2C1=O
2. COc1ccc(/C=C(\CC(=O)c2ccc(Cl)cc2)C(=O)O)cc1

Reply:
1: 9.5; 2: -21.5
